# credit: PubChem BioAssay (NCI)

- Test system: K-562 leukemia
- MEASUREMENT DESCRIPTION: NCI tumour cell line growth inhibition, 48 h; in the data active = GI50 below about 0.43 µM; inactive = the rest
Please reply with one of these outcomes: Yes for active, No for inactive

Worked examples follow.
In this assay, the call recorded for "CCOC(=O)Nc1ccc(-c2nc(-c3cccc(OCCN4CCOCC4)c3)c(-c3ccnc(Br)c3)[nH]2)cc1" was what?
No

Input "CCC[CH2][Sn]([Cl])([CH2]CCC)[CH2]CCC"
Yes

Further cases:
Field: outcome | Entry: "O=C1/C(=C/c2cccc(Cl)c2Cl)N=C(c2ccccc2)N1C1CC1"
No

Next entry: "COc1cc(-c2cc(-c3cc4c([nH]c5ccccc54)c(-c4cc(OC)c(OC)c(OC)c4)n3)cc(-c3ccccc3)n2)cc(OC)c1OC"
No

Quick one: O=C1OCC2=C1C(c1cccc(Br)c1)c1cc3c(cc1N2CCO)CCC3 (stereo unspecified)
Yes

Same for "C[C@@H]1CC[C@@H]2[C@@H]1[C@H](OC(=O)/C=C/c1ccccc1)[C@]1(C3CCCCC3)C[C@@H](OC(=O)CO)[C@@]2(C)O1"
No
